Please go through the items and note down their relative activity.
System: proline specific peptidase (svPEP)
Assay: Effects of inhibitors on the activity of proline specific peptidase (svPEP), Ala-Ala-Pro-pNA as substrate
Format: biochemical, S. mobaraense IFO13819
Settings: compound 1 mM; 10 min room temperature, then Ala-Ala-Pro-pNA, 30° C., 5 min; activity without compound = 100%
Where a SMILES comes first, the peptide text is derived from it. [ ]: non-standard residue; d: D form. The star is where a group is joined. Sta = CC(C)C[C@H](N)[C@@H](O)CC(=O)O; Isovaleryl = CC(C)CC(=O)*; Cbz = O=C(OCc1ccccc1)*
Numbers only, in %.

Could you tell me relative activity for each of these compounds? They are listed below.
1. O=S(=O)(F)Cc1ccccc1 [Phenylmethylsulfonylfluoride]
2. O=C[C@@H]1CCCN1C(=O)[C@@H]1CCCN1C(=O)OCc1ccccc1 [Z-(S)Pro-(S)Prolinal] (Cbz-Pro-Pro-aldehyde)
3. O=C[C@@H]1CCCN1C(=O)[C@@H]1CCCN1C(=O)OCc1ccccc1 [Z-Pro-Prolinal] (Cbz-Pro-Pro-aldehyde)
4. CCN1C(=O)C=CC1=O [N-Ethylmaleimide]
5. O=C(O)c1cc[c]([Hg][Cl])cc1
6. O=C[C@@H]1CCCN1C(=O)[C@@H]1CCCN1C(=O)OCc1ccccc1 [Z-Pro-(S)Prolinal] (Cbz-Pro-Pro-aldehyde)
7. CC(C)C[C@H](NC(=O)[C@@H](O)[C@H](N)Cc1ccccc1)C(=O)O
8. c1cnc2c(c1)ccc1cccnc12

1. 39.7
2. 111.2
3. 99.7
4. 98.3
5. 87.1
6. 105.8
7. 97.6
8. 92.5

Enter reported relative activity observed with proline specific peptidase (svPEP) for CC(C)CC(=O)N[C@H](C(=O)N[C@H](C(=O)N[C@@H](CC(C)C)[C@@H](O)CC(=O)N[C@@H](C)C(=O)N[C@@H](CC(C)C)[C@@H](O)CC(=O)O)C(C)C)C(C)C [Pepstatin] (Isovaleryl-VV[Sta]A[Sta]-OH)
165.7

----------
Test system: proline specific peptidase (svPEP)
Assay: Substrate specificity of svPEP (cleaving activity on pNA-, βNA-conjugated peptides and peptides)
Assay type: biochemical, S. mobaraense IFO13819
Details: 20 mM sodium phosphate buffer pH 6.5, 37° C., 5 min; AAP-pNA = 100
Primed or numbered codes have the meaning given here. Where no end group is shown, it is not given here. The star is where a group is joined. pNA = O=[N+]([O-])c1ccc(N*)cc1; code Z = not defined here; βNA = c1ccc2cc(N*)ccc2c1; Bz′ = not defined here
Please go through the items and note down their relative activity (specificity of svPEP for peptide substrate).
Numbers only, in %.

Check out these entries, answers already filled in.
# substance, numeric_readout
records = [
    ("Phe-Arg-Ala-Pro-pNA (FRAP-pNA)", 49.0),
    ("AAF-pNA (Ala-Ala-Phe-pNA) [p-nitroanilide peptide substrate for svPEP]", 4.1),
    ("Ala-Phe-Pro-pNA [AFP-pNA, p-nitroanilide peptide substrate for svPEP]", 26.3),
]

Could you tell me relative activity (specificity of svPEP for peptide substrate) for each of these substances? They are listed below.
1. Z-GAP-βNA ({code Z}-Gly-Ala-Pro-βNA; reading uncertain; also: printed as Z-GAP-βNA) [β-naphtylamido peptide substrate for svPEP]
2. Bz-Phe-Val-Arg-pNA ({Bz′}-Phe-Val-Arg-pNA) [Bz-FVR-pNA, p-nitroanilide peptide substrate]
3. Z-AGP-βNA ({code Z}-Ala-Gly-Pro-βNA; reading uncertain; also: printed as Z-AGP-βNA) [β-naphtylamido peptide substrate for svPEP]
4. PSFRAP-pNA [p-nitroanilide peptide substrate for svPEP]
5. Ala-Ala-Pro-pNA [AAP-pNA, p-nitroanilide peptide substrate for svPEP]

1. 1.2
2. 0.002
3. 0.78
4. 0.2
5. 100
